experiment_notes: Human HepG2 cell viability assay in 384 well format
Format: toxicity, cell-based
Parameters: dose 125 nL, time 70.5 hour; concentration not given beside the values
experimental_setup: HepG2 cells, read-out: Inhibition
measured_endpoint: cytotoxicity at 70.5 h (%)

>>> print(df.to_string())
                                    molecule  unit_label  readout_number
 0  Cc1c(NC(=O)NC(C)CCO)cccc1OC1CCCC1 (centres undefined)           %           -2.19
 1  COc1ccc(CNc2ncc(-c3cc(C)no3)c(C(C)C)n2)cc1           %           -4.08
 2  O=C(Cc1cccs1)NCC1Cn2nnc(-c3ccoc3)c2CO1 (centres undefined)           %            -5.7
 3  Cc1ccc(N2CC[C@@H]3[C@@H]2CCN3C(=O)c2cscn2)nn1           %           -4.17
 4          CCc1nc(NC(=O)NCCc2cccc(C)n2)nn1C           %           -12.7
 5   COc1ccc(C(=O)N2CCC(Nc3cccnn3)CC2)c(F)c1           %           -3.14
 6       CN(Cc1cccc(C#N)c1)S(=O)(=O)N1CCOCC1           %           -9.82
 7            COCCN(Cc1ccco1)c1ncc(C#N)cc1Cl           %            20.3
 8  CC(C)OCCCNC(=O)CS(=O)(=O)Cc1ccc(Cl)c(Cl)c1           %           -9.73
 9  CC(C)N1C[C@@H]2CN(C(=O)NCc3ccccc3)CCC[C@]2(C(=O)O)C1           %           -4.97
10  Cc1c(C(=O)N2CCC3(CCCNC3=O)C2)sc2nc[nH]c(=O)c12 (centres undefined)           %           -7.46
11  Cn1cnc2ccc(NC(=O)CC3CCN(S(C)(=O)=O)CC3)cc21           %              12
12              CC(C)c1cc(NCC2(CO)CCCC2)ncn1           %           -10.6
13  Cc1ccc(CNCc2nnc3n2CCCC3C(F)(F)F)o1 (centres undefined)           %            6.51
14        Cc1cnn(CCC(=O)N2CCN(c3nccs3)CC2)c1           %            17.7
15   COCCN1CCc2cc(C(=O)N(C)C)c(NC(C)C)nc2CC1           %           -8.98
16  CN1CCC(C2CCN(Cc3cccc(-n4cccn4)c3)CC2)C1 (centres undefined)           %            2.02
17  COCCn1c(C(=O)NC(C(N)=O)C(C)C)cc2ccccc21 (centres undefined)           %           -6.02
18    CCN1CCCN(S(=O)(=O)c2cnc3onc(C)c3c2)CC1           %           -7.12
19  Cc1cc(CN2CCN(C(C)C)C(CCO)C2)[nH]n1 (centres undefined)           %            9.92
20  O=C(NC1CC1)[C@H]1C[C@H]2OCC[C@H]2N(Cc2ccco2)C1           %           -8.44
21  CCN(CC)Cc1ccc(C(=O)NC2CCc3ccccc32)o1 (centres undefined)           %            21.6
22  Cc1ccc(S(=O)(=O)N(C)CC(C)O)c(F)c1 (centres undefined)           %            21.4
23  COC(=O)C1CCN(C(=O)c2nnc3ccc(Cl)cc3n2)CC1           %           -7.04
